Target sequence: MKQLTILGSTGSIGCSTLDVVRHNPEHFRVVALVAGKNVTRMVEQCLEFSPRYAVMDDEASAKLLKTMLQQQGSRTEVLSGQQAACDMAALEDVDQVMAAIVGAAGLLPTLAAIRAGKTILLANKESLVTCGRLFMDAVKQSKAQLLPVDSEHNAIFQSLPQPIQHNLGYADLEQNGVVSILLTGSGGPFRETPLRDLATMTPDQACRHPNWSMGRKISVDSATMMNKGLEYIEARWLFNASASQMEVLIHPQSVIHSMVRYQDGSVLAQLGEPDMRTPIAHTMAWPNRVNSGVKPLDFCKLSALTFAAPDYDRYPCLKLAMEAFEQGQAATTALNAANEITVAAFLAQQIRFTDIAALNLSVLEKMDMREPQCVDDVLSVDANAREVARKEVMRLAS
pIC50: −log10 of the molar value.
Literature pIC50 values, system: the protein given by its sequence.
readout kind: pIC50

These solved cases illustrate the format of a correct answer.
• COc1ccc([C@@H](CCN(O)C(C)=O)P(=O)(O)O)cc1 = 6.34
• CN(CCCCc1ccccc1)CCC(O)(P(=O)(O)O)P(=O)(O)O = 3.61
• CC(=O)N(O)CC[C@H](c1ccc(Cl)c(Cl)c1)P(=O)(O)O = 6.92
• O=CN(O)CC(Cc1ccccc1)CP(=O)(O)O (configuration not stated) = 5.19
• O=C(c1ccccc1O)N(O)CCCP(=O)(O)O = 5.74
• COc1ccc(CC(=O)NCC(=O)N(O)CCCP(=O)(O)O)cc1OC = 4.85

(P) O=C(CCc1ccccc1)N(O)CCCP(=O)(O)O
(Q) O=C(c1ccc(-c2ccccc2)cc1)N(O)CCCP(=O)(O)O
API: POST /compare with P and Q ; response names the item with higher pIC50. Please respond with the label that marks your chosen entry.
Q
(Q: 5.62, P: 4.30)

(a) O=C(CCCc1c[nH]c2ccccc12)NCC(=O)N(O)CCCP(=O)(O)O
(b) CC(=O)N(O)CC[C@H](c1ccc(Cl)cc1)P(=O)(O)O
Could you kindly indicate whether a or b has the higher pIC50 value? Use the label to indicate which entry you chose.
b
